test: pKa of tasquinimod; format: physicochemical; settings: weak acid
metricName: pKa
// return just the number, without any unit appended

### Prompt Recorded pKa of COc1cccc2c1c(O)c(C(=O)N(C)c1ccc(C(F)(F)F)cc1)c(=O)n2C , please.
### Response 6.5
